The measured values listed here are drawn from ChEMBL document CHEMBL2375330.

Documented MIC across a set of molecules
- Tested on: Streptococcus pyogenes
- Assay summary: microbe, parasite or virus in culture
- Assay type: functional
- Reported conditions: MTCC 442
- Description: Antibacterial activity against Streptococcus pyogenes MTCC 442 by broth dilution method
Numeric answer only, unit µg/mL assumed.

Example cases with answers are listed next.
N#Cc1c(-c2cccc(Br)c2)c(C#N)c(=O)n(/N=C/c2cn(-c3ccccc3)nc2-c2ccccc2)c1N: 500
N#Cc1c(-c2ccccc2C(F)(F)F)c(C#N)c(=O)n(/N=C/c2cn(-c3ccccc3)nc2-c2ccccc2)c1N: 250
N#Cc1c(-c2ccccc2F)c(C#N)c(=O)n(/N=C/c2cn(-c3ccccc3)nc2-c2ccccc2)c1N: 25

Let's switch to this molecule now.
Measured MIC of O=C(O)c1cn(C2CC2)c2cc(N3CCNCC3)c(F)cc2c1=O : 50

* * *

- System: Streptococcus pyogenes
- Assay summary: microbe, parasite or virus in culture
- Assay type: functional
- Reported conditions: MTCC 442
Documented MIC across a set of compounds
Numeric answer only, unit µg/mL assumed.

Example cases with answers are listed next.
N#Cc1c(-c2ccccc2)c(C#N)c(=O)n(/N=C/c2cn(-c3ccccc3)nc2-c2ccccc2)c1N: 500
N#Cc1c(-c2cccc(F)c2)c(C#N)c(=O)n(/N=C/c2cn(-c3ccccc3)nc2-c2ccccc2)c1N: 50
N#Cc1c(-c2ccccc2[N+](=O)[O-])c(C#N)c(=O)n(/N=C/c2cn(-c3ccccc3)nc2-c2ccccc2)c1N: 250
N#Cc1c(-c2ccc(F)cc2)c(C#N)c(=O)n(/N=C/c2cn(-c3ccccc3)nc2-c2ccccc2)c1N: 100

Measured MIC of N#Cc1c(-c2ccccc2Br)c(C#N)c(=O)n(/N=C/c2cn(-c3ccccc3)nc2-c2ccccc2)c1N : 250

Measured MIC of N#Cc1c(-c2ccccc2O)c(C#N)c(=O)n(/N=C/c2cn(-c3ccccc3)nc2-c2ccccc2)c1N : 250

Measured MIC of N#Cc1c(-c2ccc(C(F)(F)F)cc2)c(C#N)c(=O)n(/N=C/c2cn(-c3ccccc3)nc2-c2ccccc2)c1N : 250

* * *

- System: Pseudomonas aeruginosa
- Assay summary: microbe, parasite or virus in culture
- Format: functional
- Reported conditions: MTCC 1688
- Description: Antibacterial activity against Pseudomonas aeruginosa MTCC 1688 by broth dilution method
hey, just use MET if measured MIC is less than 200 µg/mL, otherwise NOT MET

Below, 2 compounds whose answers are already recorded.
N#Cc1c(-c2ccc(O)cc2)c(C#N)c(=O)n(/N=C/c2cn(-c3ccccc3)nc2-c2ccccc2)c1N: NOT MET
N#Cc1c(-c2ccccc2Br)c(C#N)c(=O)n(/N=C/c2cn(-c3ccccc3)nc2-c2ccccc2)c1N: NOT MET

# strict comparison: is reported MIC < 200 µg/mL? input = COc1ccc(-c2c(C#N)c(N)n(/N=C/c3cn(-c4ccccc4)nc3-c3ccccc3)c(=O)c2C#N)cc1
NOT MET

# strict comparison: is reported MIC < 200 µg/mL? input = N#Cc1c(-c2ccc(Cl)cc2)c(C#N)c(=O)n(/N=C/c2cn(-c3ccccc3)nc2-c2ccccc2)c1N
NOT MET

# strict comparison: is reported MIC < 200 µg/mL? input = N#Cc1c(-c2cccc([N+](=O)[O-])c2)c(C#N)c(=O)n(/N=C/c2cn(-c3ccccc3)nc2-c2ccccc2)c1N
MET

# strict comparison: is reported MIC < 200 µg/mL? input = N#Cc1c(-c2ccccc2F)c(C#N)c(=O)n(/N=C/c2cn(-c3ccccc3)nc2-c2ccccc2)c1N
MET

# strict comparison: is reported MIC < 200 µg/mL? input = Cc1ccc(-c2c(C#N)c(N)n(/N=C/c3cn(-c4ccccc4)nc3-c3ccccc3)c(=O)c2C#N)cc1
NOT MET

# strict comparison: is reported MIC < 200 µg/mL? input = N#Cc1c(-c2ccc(F)cc2)c(C#N)c(=O)n(/N=C/c2cn(-c3ccccc3)nc2-c2ccccc2)c1N
MET

# strict comparison: is reported MIC < 200 µg/mL? input = N#Cc1c(-c2ccccc2[N+](=O)[O-])c(C#N)c(=O)n(/N=C/c2cn(-c3ccccc3)nc2-c2ccccc2)c1N
MET

# strict comparison: is reported MIC < 200 µg/mL? input = N#Cc1c(-c2cccc(Cl)c2)c(C#N)c(=O)n(/N=C/c2cn(-c3ccccc3)nc2-c2ccccc2)c1N
NOT MET

# strict comparison: is reported MIC < 200 µg/mL? input = N#Cc1c(-c2ccccc2Cl)c(C#N)c(=O)n(/N=C/c2cn(-c3ccccc3)nc2-c2ccccc2)c1N
MET

# strict comparison: is reported MIC < 200 µg/mL? input = N#Cc1c(-c2ccccc2O)c(C#N)c(=O)n(/N=C/c2cn(-c3ccccc3)nc2-c2ccccc2)c1N
NOT MET

* * *

- Test system: Pseudomonas aeruginosa
- Assay summary: microbe, parasite or virus in culture
- Assay type: functional
- Reported conditions: MTCC 1688
Recorded metric: MIC (µg/mL)
Numeric answer only, unit µg/mL assumed.

Example cases with answers are listed next.
N#Cc1c(-c2cccc(Br)c2)c(C#N)c(=O)n(/N=C/c2cn(-c3ccccc3)nc2-c2ccccc2)c1N: 250
N#Cc1c(-c2ccc(Br)cc2)c(C#N)c(=O)n(/N=C/c2cn(-c3ccccc3)nc2-c2ccccc2)c1N: 100
COc1cc(-c2c(C#N)c(N)n(/N=C/c3cn(-c4ccccc4)nc3-c3ccccc3)c(=O)c2C#N)cc(OC)c1OC: 250

Measured MIC of N#Cc1c(-c2cccc(F)c2)c(C#N)c(=O)n(/N=C/c2cn(-c3ccccc3)nc2-c2ccccc2)c1N : 50

Measured MIC of N#Cc1c(-c2ccccc2C(F)(F)F)c(C#N)c(=O)n(/N=C/c2cn(-c3ccccc3)nc2-c2ccccc2)c1N : 250

Measured MIC of N#Cc1c(-c2ccc([N+](=O)[O-])cc2)c(C#N)c(=O)n(/N=C/c2cn(-c3ccccc3)nc2-c2ccccc2)c1N : 25

Measured MIC of N#Cc1c(-c2ccc(C(F)(F)F)cc2)c(C#N)c(=O)n(/N=C/c2cn(-c3ccccc3)nc2-c2ccccc2)c1N : 25

Measured MIC of N#Cc1c(-c2ccccc2)c(C#N)c(=O)n(/N=C/c2cn(-c3ccccc3)nc2-c2ccccc2)c1N : 500

* * *

- Tested on: Escherichia coli
- Assay summary: microbe, parasite or virus in culture
- Type: functional
- Reported conditions: MTCC 443
- Description: Antibacterial activity against Escherichia coli MTCC 443 by broth dilution method
Recorded metric: MIC (µg/mL)
Numeric answer only, unit µg/mL assumed.

Value sought: MIC, system Escherichia coli, item N#Cc1c(-c2ccccc2O)c(C#N)c(=O)n(/N=C/c2cn(-c3ccccc3)nc2-c2ccccc2)c1N . Result: 500

Value sought: MIC, system Escherichia coli, item N#Cc1c(-c2ccc(C(F)(F)F)cc2)c(C#N)c(=O)n(/N=C/c2cn(-c3ccccc3)nc2-c2ccccc2)c1N . Result: 250

Value sought: MIC, system Escherichia coli, item COc1ccc(-c2c(C#N)c(N)n(/N=C/c3cn(-c4ccccc4)nc3-c3ccccc3)c(=O)c2C#N)cc1 . Result: 500

* * *

- Tested on: Escherichia coli
- Assay summary: microbe, parasite or virus in culture
- Format: functional
- Reported conditions: MTCC 443
hey, just use t if measured MIC is less than 100 µg/mL, otherwise f

Below, 8 compounds whose answers are already recorded.
Cc1ccc(-c2c(C#N)c(N)n(/N=C/c3cn(-c4ccccc4)nc3-c3ccccc3)c(=O)c2C#N)cc1: f
O=C(O)c1cn(C2CC2)c2cc(N3CCNCC3)c(F)cc2c1=O: t
N#Cc1c(-c2ccccc2[N+](=O)[O-])c(C#N)c(=O)n(/N=C/c2cn(-c3ccccc3)nc2-c2ccccc2)c1N: t
N#Cc1c(-c2ccc(O)cc2)c(C#N)c(=O)n(/N=C/c2cn(-c3ccccc3)nc2-c2ccccc2)c1N: f
N#Cc1c(-c2ccc(Br)cc2)c(C#N)c(=O)n(/N=C/c2cn(-c3ccccc3)nc2-c2ccccc2)c1N: f
N#Cc1c(-c2cccc(Cl)c2)c(C#N)c(=O)n(/N=C/c2cn(-c3ccccc3)nc2-c2ccccc2)c1N: t
COc1cc(-c2c(C#N)c(N)n(/N=C/c3cn(-c4ccccc4)nc3-c3ccccc3)c(=O)c2C#N)cc(OC)c1OC: f
N#Cc1c(-c2ccc([N+](=O)[O-])cc2)c(C#N)c(=O)n(/N=C/c2cn(-c3ccccc3)nc2-c2ccccc2)c1N: t

Next, consider the following compound.
# strict comparison: is reported MIC < 100 µg/mL? input = N#Cc1c(-c2ccc(Cl)cc2)c(C#N)c(=O)n(/N=C/c2cn(-c3ccccc3)nc2-c2ccccc2)c1N
f

* * *

- System: Streptococcus pyogenes
- Assay summary: microbe, parasite or virus in culture
- Format: functional
- Reported conditions: MTCC 442
hey, just use Satisfied if measured MIC is less than 100 µg/mL, otherwise Not satisfied

Below, 5 compounds whose answers are already recorded.
N#Cc1c(-c2ccc(O)cc2)c(C#N)c(=O)n(/N=C/c2cn(-c3ccccc3)nc2-c2ccccc2)c1N: Not satisfied
N#Cc1c(-c2cccc([N+](=O)[O-])c2)c(C#N)c(=O)n(/N=C/c2cn(-c3ccccc3)nc2-c2ccccc2)c1N: Satisfied
N#Cc1c(-c2ccc(Cl)cc2)c(C#N)c(=O)n(/N=C/c2cn(-c3ccccc3)nc2-c2ccccc2)c1N: Satisfied
COc1cc(-c2c(C#N)c(N)n(/N=C/c3cn(-c4ccccc4)nc3-c3ccccc3)c(=O)c2C#N)cc(OC)c1OC: Not satisfied
Cc1ccc(-c2c(C#N)c(N)n(/N=C/c3cn(-c4ccccc4)nc3-c3ccccc3)c(=O)c2C#N)cc1: Not satisfied

# strict comparison: is reported MIC < 100 µg/mL? input = COc1ccc(-c2c(C#N)c(N)n(/N=C/c3cn(-c4ccccc4)nc3-c3ccccc3)c(=O)c2C#N)cc1
Not satisfied

# strict comparison: is reported MIC < 100 µg/mL? input = N#Cc1c(-c2ccc([N+](=O)[O-])cc2)c(C#N)c(=O)n(/N=C/c2cn(-c3ccccc3)nc2-c2ccccc2)c1N
Satisfied
